- measured.target: Parkinson's disease protein 7 (PARK7/DJ1) (human)
- assay.overview: primary screen, percent inhibition; higher = more effect of the substance
- condition.context: 100 µM
The whole screen tested about 7,900 compounds, of which about 400 (5.1%) showed an effect of 50% or more. The entries come from a sample that favours strong results as a whole.
Bucketed by reported Inhibition %, buckets being Low (below 5%), Mid (5% to below 10%), High (10% or more)

| compound | measured.target | label.class |
| --- | --- | --- |
| O=C1CC(Cc2ccccc2)N1 (centres unmarked) | Parkinson's disease protein 7 (PARK7/DJ1) (human) | Low |
| CC1=NOC(=O)C1CC(=O)O (centres unmarked) | Parkinson's disease protein 7 (PARK7/DJ1) (human) | High |
| Nc1cccnc1S(=O)(=O)F | Parkinson's disease protein 7 (PARK7/DJ1) (human) | High |
| C=CC(=O)N1CCC(OC)C(C)C1 (centres unmarked) | Parkinson's disease protein 7 (PARK7/DJ1) (human) | Low |
| C=CC(=O)Nc1cc(C(F)(F)F)n[nH]1 | Parkinson's disease protein 7 (PARK7/DJ1) (human) | Mid |
| C=CC(=O)N1CCC(Cc2ccncc2)C1 (centres unmarked) | Parkinson's disease protein 7 (PARK7/DJ1) (human) | Mid |
| CC1(C)OB(c2cc(CN3CCCC3)ccc2F)OC1(C)C | Parkinson's disease protein 7 (PARK7/DJ1) (human) | Low |
| Nc1ccccc1S(=O)(=O)F | Parkinson's disease protein 7 (PARK7/DJ1) (human) | High |
| O=C1CC(c2ccccc2)N1 (centres unmarked) | Parkinson's disease protein 7 (PARK7/DJ1) (human) | Mid |
| O=C(CCl)Nc1ccc(S(=O)(=O)N2CCCCC2)cc1 | Parkinson's disease protein 7 (PARK7/DJ1) (human) | High |
| C=CC(=O)N1CCOCC1CC (centres unmarked) | Parkinson's disease protein 7 (PARK7/DJ1) (human) | Mid |
| C=CC(=O)NC1C2Cc3ccccc3C21 (centres unmarked) | Parkinson's disease protein 7 (PARK7/DJ1) (human) | High |
| O=C(CCCl)Nc1cccc(S(=O)(=O)N2CCCC2)c1 | Parkinson's disease protein 7 (PARK7/DJ1) (human) | Low |

----------
- measured.target: Parkinson's disease protein 7 (PARK7/DJ1) (human)
- assay.overview: primary screen, percent inhibition; higher = more effect of the substance
- condition.context: 100 µM
The campaign covered roughly 7,900 compounds. About 400 (5.1%) showed an effect of 50% or more. The list comes from a sample in which strong results are over-represented; it also holds close analogues and randomly drawn compounds.
# label = Satisfied if Inhibition % >= 10% else Not satisfied

| compound | measured.target | label.class |
| --- | --- | --- |
| O=C(CCl)C1CCOCC1 | Parkinson's disease protein 7 (PARK7/DJ1) (human) | Satisfied |
| C=CC(=O)NCC1CCC(F)(F)CC1 | Parkinson's disease protein 7 (PARK7/DJ1) (human) | Not satisfied |
| O=C(CCl)N1CCCC2CCCCC21 (centres unmarked) | Parkinson's disease protein 7 (PARK7/DJ1) (human) | Satisfied |
| C=CC(=O)N1CCN(C)c2cc(F)ccc21 | Parkinson's disease protein 7 (PARK7/DJ1) (human) | Satisfied |
| C=CC(=O)Nc1ccc2c(c1)CCCO2 | Parkinson's disease protein 7 (PARK7/DJ1) (human) | Not satisfied |
| O=C(CCl)NNC(=O)C1CC1 | Parkinson's disease protein 7 (PARK7/DJ1) (human) | Not satisfied |
| C=CC(=O)Nc1ccc2c(c1)N(C)CCO2 | Parkinson's disease protein 7 (PARK7/DJ1) (human) | Satisfied |
| Cl.NCC1OB(O)c2ccccc21 (centres unmarked) | Parkinson's disease protein 7 (PARK7/DJ1) (human) | Not satisfied |

----------
Reported Inhibition % values for a set of compounds
- measured.target: Parkinson's disease protein 7 (PARK7/DJ1) (human, UniProt Q99497)
- Sequence (Q99497 whole entry, looked up): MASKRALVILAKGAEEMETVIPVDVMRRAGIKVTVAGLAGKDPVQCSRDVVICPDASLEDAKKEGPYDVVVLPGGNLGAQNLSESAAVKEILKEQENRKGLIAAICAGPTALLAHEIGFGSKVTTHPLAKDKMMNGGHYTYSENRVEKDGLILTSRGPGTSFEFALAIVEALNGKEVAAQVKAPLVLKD
- assay.overview: primary screen, percent inhibition; read as competition with a fluorescent probe by fluorescence polarization; higher = more effect of the substance
- condition.context: 100 µM
In all, about 7,900 compounds went through this assay and about 400 (5.1%) showed an effect of 50% or more. For the sample, strong results were picked, then their nearest neighbours and some compounds at random.
experimental.endpoint: Inhibition % (%)

| compound | experimental.endpoint | unit.spec | val |
| --- | --- | --- | --- |
| C=CC(=O)Nc1ccc2c(c1)CCC(C)(C)O2 | Inhibition % | % | 6.26 |
| O=c1[nH]c(-c2cccc(S(=O)(=O)F)c2)nc2sc3c(c12)CCC3 | Inhibition % | % | 88.5 |
| Cc1nc(S)c(C#N)cc1C(=O)Nc1ccccc1 | Inhibition % | % | 10.1 |
| Nc1ncnc2c1ncn2CCCCl | Inhibition % | % | 2.3 |
| C=CC(=O)N1CCCC(c2n[nH]c(=O)o2)C1 (stereo not drawn) | Inhibition % | % | 1.49 |
| COc1nscc1B1OC(C)(C)C(C)(C)O1 | Inhibition % | % | 20.8 |
| C=CC(=O)NCCC1CCOC1 (stereo not drawn) | Inhibition % | % | 4.58 |
| COc1cncc(C#N)n1 | Inhibition % | % | 9.79 |
| ClCCCn1cccn1 | Inhibition % | % | 5.21 |
| C=CC(=O)N1CCC(CN(C)Cc2scnc2C)C1 (stereo not drawn) | Inhibition % | % | 13.2 |
| Cc1cc(C#N)nc(NC2CCCCCC2)n1 | Inhibition % | % | 2.75 |
| C=CC(=O)N1C[C@H](CC)CC[C@H]1C (racemic) | Inhibition % | % | 10.5 |
| CC1(C)OB(c2ccc(OCCS(C)(=O)=O)cc2)OC1(C)C | Inhibition % | % | -1.19 |
| O=C(CCl)NC1CCN(C(=O)CCc2ccccc2)CC1 | Inhibition % | % | 11.9 |
| c1ccc(OCC2CO2)cc1 (stereo not drawn) | Inhibition % | % | 9.6 |
| CCn1cc(C2NC(=O)C23CCOCC3)cn1 (stereo not drawn) | Inhibition % | % | 2.01 |
| C=CC(=O)Nc1ccc(C)cn1 | Inhibition % | % | 0.151 |
| CNC(=O)Oc1noc(C)c1C | Inhibition % | % | 84.8 |
| COc1ccc2[nH]c(CCCCl)nc2n1.Cl | Inhibition % | % | 23.2 |
| CN(CC(=O)Nc1ncc(S(=O)(=O)F)s1)S(C)(=O)=O | Inhibition % | % | 9.17 |
| Clc1ccccc1COCC1CO1 (stereo not drawn) | Inhibition % | % | 9.97 |
| O=c1[nH]c(-c2ccc(S(=O)(=O)F)cc2)nc2ccccc12 | Inhibition % | % | 13 |
| C=C(Cl)CSc1nc(N)cc(N)n1 | Inhibition % | % | 18.5 |
| CC1(C)OB(c2ccc(N)nc2)OC1(C)C | Inhibition % | % | 9.29 |
| C=CC(=O)Nc1ccc2nc(C3CC3)oc2c1 | Inhibition % | % | 11.6 |
| Cc1noc(C)c1CNC(=O)CCl | Inhibition % | % | 46.7 |
| O=C(CCl)N1CCN(S(=O)(=O)Cc2ccccc2)CC1 | Inhibition % | % | 13.1 |
| O=C1OCCC1Sc1ncnc2sccc12 (stereo not drawn) | Inhibition % | % | 6.21 |
| CC1CC(N2CCCCC2Cn2cncn2)C(=O)O1 (stereo not drawn) | Inhibition % | % | 1.57 |
| O=c1[nH]c(-c2ccc(S(=O)(=O)F)cc2)nc2sc3c(c12)CCC3 | Inhibition % | % | 15.9 |
| O=C1OCCC1Sc1ncnc2ccccc12 (stereo not drawn) | Inhibition % | % | 54.5 |
| Cc1oc(C(N)=O)cc1C(=O)CCl | Inhibition % | % | 30.9 |
| O=c1onc(-c2ncccn2)n1Cc1ccccc1F | Inhibition % | % | 1.26 |
| O=S(=O)(F)CCCS(=O)(=O)Nc1ccc(F)cn1 | Inhibition % | % | 77.2 |
| C=CC(=O)N1CCCC(c2nc(C)c(C)s2)C1 (stereo not drawn) | Inhibition % | % | 6.18 |
| C=CC(=O)NCC1(C)CCOC2(CCC2)C1 (stereo not drawn) | Inhibition % | % | 13.5 |
| CNC(=O)Oc1cccc(N)c1 | Inhibition % | % | 20.5 |
| C=CC(=O)Nc1cnn(COC)c1 | Inhibition % | % | 17.1 |
| CCc1nccn1S(=O)(=O)c1cc(C)c(OC)cc1C | Inhibition % | % | 7.23 |
| COc1cc(C)c(C)cc1S(=O)(=O)n1cccn1 | Inhibition % | % | 6.67 |
| CC(C)c1nc2c(n1C)CCN(c1cccnc1C#N)C2 | Inhibition % | % | 87 |
| N#Cc1ncn(Cc2ccc(F)cc2Cl)n1 | Inhibition % | % | 0.898 |
| CC1(C)OB(c2cccc(OC(F)F)c2)OC1(C)C | Inhibition % | % | 3.49 |
| C=CC(=O)N1CCC(c2ccnn2C)CC1 | Inhibition % | % | 4.28 |
| Cc1oc(C(=O)O)cc1C(=O)CCl | Inhibition % | % | 92.2 |
| N#Cc1ncn(CCC(=O)NCc2ccc(F)cc2)n1 | Inhibition % | % | 7.22 |
| CC1(C)OB(c2ccc(C3CCC(=O)N3)cc2)OC1(C)C (stereo not drawn) | Inhibition % | % | 6.79 |
| C=CC(=O)Nc1cc2ccccn2n1 | Inhibition % | % | 30.2 |
| Cc1ccc(C=CS(=O)(=O)Nc2ccc(C#N)cn2)cc1 | Inhibition % | % | 11.1 |
| CCc1c(OC(=O)NC)noc1C | Inhibition % | % | 84.6 |
| C=CC(=O)N1CCCC2(CCCOC2)C1 (stereo not drawn) | Inhibition % | % | 11.3 |
| O=S(=O)(F)c1ccc(Nc2ccc(F)cc2)nc1 | Inhibition % | % | 2.34 |
| Oc1ccnc(S)n1 | Inhibition % | % | 2.99 |
| N#Cc1nc(C2CC2)n[nH]1 | Inhibition % | % | 2.55 |
